endpoint_label: melting point (°C)
Write the value in °C as a bare number.

INSERT INTO results (chemical_smiles, endpoint_label, result_value) VALUES
  ('CCCCC1(CCCC)CS(=O)(=O)c2ccc(N(C)C)cc2[C@@H](c2ccc(OCCOCCC(C(=O)O)C(=O)O)cc2)[C@H]1O', 'melting point', 119.5);

response.value for "CCCCC1(CCCC)CS(=O)(=O)c2ccc(N(C)C)cc2[C@@H](c2ccc(OCCCCCOc3cc(C(=O)O)nc(C(=O)O)c3)cc2)[C@H]1O" (field: melting point) = 143

* * *

Measured melting point, listed per entry.

Here are 2 molecules together with their reported answers.
INSERT INTO results (molecule, result_value) VALUES
  ('CCCCC1(CCCC)CS(=O)(=O)c2ccc(N(C)C)cc2[C@@H](c2ccc(OCCCCS(N)(=O)=O)cc2)[C@H]1O [Example 1405]', '108 to 110 °C'),
  ('CCCCC1(CCCC)CS(=O)(=O)c2ccc(N(C)C)cc2[C@@H](c2ccc(OCc3ccc(C(=O)O)cc3)cc2)[C@H]1O [Example 1424]', '156 to 159 °C');

response.value for CCCC[C@]1(CC)CS(=O)(=O)c2ccc(N3CCCC3)cc2[C@@H](c2ccc(F)cc2)[C@H]1O [Compound 82] (field: melting point) = 174.5 to 177 °C

response.value for "CCCCC1(CCCC)CS(=O)(=O)c2ccc(N(C)C)cc2[C@@H](c2cccc(NC(=O)Nc3cccc(C[N+]45CCN(CC4)CC5)c3)c2)[C@H]1O.[Cl-]" (field: melting point) = 246 to 248 °C

response.value for CCCCC1(CCCC)CS(=O)(=O)c2ccc(N(C)C)cc2[C@@H](c2ccc(OCCCCCc3nn[nH]n3)cc2)[C@H]1O [Example 1420] (field: melting point) = 80 to 85 °C

response.value for CCCCC1(CCCC)CS(=O)(=O)c2ccc(N(C)C)cc2[C@@H](c2ccc(OCCCCC[N+](C)(C)CC[N+](C)(C)CC)cc2)[C@H]1O [Example 1418] (field: melting point) = 193 to 197 °C

* * *

Measured melting point, listed per entry.

Here are 3 molecules together with their reported answers.
INSERT INTO results (molecule, result_value) VALUES
  ('CCCCC1(CCCC)CS(=O)(=O)c2ccc(N(C)C)cc2[C@@H](c2ccc(OCc3cccc(CCC(=O)O)n3)cc2)[C@H]1O [Example 1430]', '105 to 107 °C'),
  ('CCCC[C@]1(CC)CS(=O)(=O)c2ccc(N3CCOCC3)cc2[C@@H](c2ccc(F)cc2)[C@H]1O [Compound 83]', '176.5 to 187.5 °C'),
  ('CCCCC1(CCCC)CS(=O)(=O)c2ccc(N(C)C)cc2[C@@H](c2ccc(OCCCCCC(C(=O)O)C(=O)O)cc2)[C@H]1O [Example 1413]', '118 °C');

response.value for CCCCC1(CCCC)CS(=O)(=O)c2ccc(N(C)C)cc2[C@@H](c2ccc(OCCCCCNC(=N)N)cc2)[C@H]1O [Example 1422] (field: melting point) = 67 to 72.5 °C
